biological target: the molecule itself; assay: native gel or EMSA
Quantity Kind: Tetramerized SDR5C1 (percent) (%)
Number in %, nothing else.

Q. Please look up its Tetramerized SDR5C1 (percent): SDR5C1 N247S, N-terminally His-tagged (enzyme) MAAACRSVKGLVAVITGGASGLGLATAERLVGQGASAVLLDLPNSGGEAQAKKLGNNCVFAPADVTSEKDVQTALALAKGKFGRVDVAVNCAGIAVASKTYNLKKGQTHTLEDFQRVLDVNLMGTFNVIRLVAGEMGQNEPDQGGQRGVIINTASVAAFEGQVGQAAYSASKGGIVGMTLPIARDLAPIGIRVMTIAPGLFGTPLLTSLPEKVCNFLASQVPFPSRLGDPAEYAHLVQAIIENPFLSGEVIRLDGAIRMQP
A. 25.8

Q. Look up Tetramerized SDR5C1 (percent) for this protein: SDR5C1 R130C, N-terminally His-tagged (enzyme) MAAACRSVKGLVAVITGGASGLGLATAERLVGQGASAVLLDLPNSGGEAQAKKLGNNCVFAPADVTSEKDVQTALALAKGKFGRVDVAVNCAGIAVASKTYNLKKGQTHTLEDFQRVLDVNLMGTFNVICLVAGEMGQNEPDQGGQRGVIINTASVAAFEGQVGQAAYSASKGGIVGMTLPIARDLAPIGIRVMTIAPGLFGTPLLTSLPEKVCNFLASQVPFPSRLGDPAEYAHLVQAIIENPFLNGEVIRLDGAIRMQP
A. 100

Q. Consider the protein SDR5C1 R226Q, N-terminally His-tagged (enzyme) MAAACRSVKGLVAVITGGASGLGLATAERLVGQGASAVLLDLPNSGGEAQAKKLGNNCVFAPADVTSEKDVQTALALAKGKFGRVDVAVNCAGIAVASKTYNLKKGQTHTLEDFQRVLDVNLMGTFNVIRLVAGEMGQNEPDQGGQRGVIINTASVAAFEGQVGQAAYSASKGGIVGMTLPIARDLAPIGIRVMTIAPGLFGTPLLTSLPEKVCNFLASQVPFPSQLGDPAEYAHLVQAIIENPFLNGEVIRLDGAIRMQP and give its measured Tetramerized SDR5C1 (percent).
A. 26

Q. Need Tetramerized SDR5C1 (percent) of SDR5C1 P210S, N-terminally His-tagged (enzyme) MAAACRSVKGLVAVITGGASGLGLATAERLVGQGASAVLLDLPNSGGEAQAKKLGNNCVFAPADVTSEKDVQTALALAKGKFGRVDVAVNCAGIAVASKTYNLKKGQTHTLEDFQRVLDVNLMGTFNVIRLVAGEMGQNEPDQGGQRGVIINTASVAAFEGQVGQAAYSASKGGIVGMTLPIARDLAPIGIRVMTIAPGLFGTPLLTSLSEKVCNFLASQVPFPSRLGDPAEYAHLVQAIIENPFLNGEVIRLDGAIRMQP , thanks.
A. 100
